Property: protein stability index; scope: individual variants
B1: ACBD3 (parent)
chain: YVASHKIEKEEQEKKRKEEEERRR

Variants of: B1
Experiment: protein stability index of a GFP-peptide fusion (GPS, HEK-293T) (PSI 1-6); higher = more stable;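 also: lentivirally expressed fusions sorted by FACS into six bins by GFP to DsRed ratio, PSI derived from sequencing read proportions per bin multiplied by bin number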
Conditions: c terminus: a fixed tail appended
Answer as a number with no unit attached.

Field: example entries. Status: answers known.
What does the data say about its protein stability index? Entry: Q12W
1.93

Entry R24Y please
2.42

Entry E18P please
2.25

Entry R24F please
2.85

Entry R16I please
2.69

# ---- query variant ----
What does the data say about its protein stability index? Entry: K17E
2.93
